System: CP297
experiment-description: qHTS profiling for inhibitors of Plasmodium falciparum proliferation (AID 504749); further: nearly all actives have a fitted effect of over 60% in size
settings: P. falciparum in erythrocytes, SYBR Green DNA, 72 h; series mostly up to 12.8 µM
Records with an inconclusive call do not appear. The source made the active and inactive calls. The call rests on the fitted dose curve; in most records, active means well fitted inhibition curve with a large enough effect; inconclusive means small, poorly fitted or top-dose-only effect; inactive means flat fitted curve, though single readings scatter. Peptide text beside a SMILES is read from it.
Outcomes: active, inactive

{"molecule": "CCN1CCC[C@@H](OC(=O)C(c2ccccc2)c2ccccc2)C1", "class-label": "inactive"}
{"molecule": "C=CC1=C(C(=O)O)N2C(=O)[C@@H](NC(=O)/C(=N\\OCC(=O)O)c3csc(N)n3)[C@@H]2SC1", "class-label": "inactive"}
{"molecule": "CN(C)CCn1nnnc1SCC1=C(C(=O)O)N2C(=O)[C@@H](NC(=O)Cc3csc(N)n3)[C@@H]2SC1", "class-label": "inactive"}
{"molecule": "C[C@@]12CCC(=O)C=C1C=CC1C2CC[C@]2(C)C1CC[C@@]21CCC(=O)O1 (stereo partly specified)", "class-label": "inactive"}
{"molecule": "COC1C=CO[C@@]2(C)Oc3c(C)c(O)c4c(O)c(c(C=NN5CCN(C)CC5)c(O)c4c3C2=O)NC(=O)/C(C)=C\\C=CC(C)C(O)[C@@H](C)C(O)C(C)[C@H](OC(C)=O)C1C (stereo partly specified)", "class-label": "active"}
{"molecule": "C[C@@H]1C[C@H]2[C@@H]3C[C@H](F)C4=CC(=O)C=C[C@@]4(C)[C@]3(F)[C@H](O)C[C@]2(C)[C@@]1(O)C(=O)CO", "class-label": "inactive"}
{"molecule": "CNC[C@H](O)c1ccc(OC(=O)C(C)(C)C)c(OC(=O)C(C)(C)C)c1", "class-label": "inactive"}
{"molecule": "C[N+]12CCC(CC1)[C@@H](OC(=O)C(O)(c1ccccc1)c1ccccc1)C2", "class-label": "inactive"}
{"molecule": "CCOC(=O)O[C@]1(C(=O)COC(=O)CC)CC[C@@H]2[C@@H]3CCC4=CC(=O)C=C[C@@]4(C)[C@H]3[C@H](O)C[C@]21C", "class-label": "inactive"}
{"molecule": "COc1c(O[C@H]2O[C@@H](CO)[C@@H](O)[C@@H](O)[C@@H]2O)cc2c(c1OC)-c1ccc(SC)c(=O)cc1[C@H](NC(C)=O)CC2", "class-label": "inactive"}
{"molecule": "N[C@@H]1C(O)OC(CO)C(O)C1O (stereo partly specified)", "class-label": "inactive"}
{"molecule": "CCN[C@@H]1C[C@H](N)[C@H](O[C@H]2OC(CN)=CC[C@H]2N)[C@@H](O)[C@H]1O[C@H]1OC[C@@](C)(O)[C@@H](NC)[C@@H]1O", "class-label": "inactive"}
{"molecule": "CN[C@H]1[C@@H](O)[C@@H](NC)[C@@H]2O[C@@]3(O)C(=O)C[C@@H](C)O[C@H]3O[C@H]2[C@H]1O", "class-label": "inactive"}
{"molecule": "CCC(=O)O[C@@]1(C(=O)SCF)[C@@H](C)C[C@H]2[C@@H]3C[C@@H](F)C4=CC(=O)C=C[C@@]4(C)[C@]3(F)[C@@H](O)C[C@]21C", "class-label": "inactive"}
{"molecule": "NC(=O)c1cc[n+](CC2=C(C(=O)[O-])N3C(=O)[C@@H](NC(=O)Cc4cccs4)[C@@H]3SC2)cc1", "class-label": "inactive"}
{"molecule": "CN1CCC[C@@H](CC2c3ccccc3Sc3ccccc32)C1", "class-label": "inactive"}
{"molecule": "CC1=C(C(=O)O)N2C(=O)[C@@H](NC(=O)[C@@H](N)c3ccc(O)cc3)[C@@H]2SC1", "class-label": "inactive"}
{"molecule": "CC1(C)OC2CO[C@]3(COS(N)(=O)=O)OC(C)(C)OC3C2O1 (stereo partly specified)", "class-label": "inactive"}
{"molecule": "CCO[C@H]1O[C@@H]([C@H](COCc2ccccc2)OCc2ccccc2)[C@@H](OCc2ccccc2)[C@H]1O", "class-label": "inactive"}
{"molecule": "COC(=O)C(Cc1ccccc1)NC(=O)C(N)CC(=O)O (stereo not drawn) (H-Asp-Phe-OMe; configuration not given here)", "class-label": "inactive"}
{"molecule": "COC1OC(CO)C(OC2OC(C(=O)O)C(OC3OC(COS(=O)(=O)O)C(OC4OC(C(=O)O)C(OC5OC(CO)C(OC6OC(C(=O)O)C(OC7OC(COS(=O)(=O)O)C(OC8OC(C(=O)O)=C[C@H](O)C8OS(=O)(=O)O)C(O)C7NC(C)=O)[C@@H](O)C6O)C(O)C5NC(C)=O)[C@@H](O)C4O)C(O)C3NC(C)=O)[C@@H](O)C2O)C(O)C1NC(C)=O (stereo partly specified)", "class-label": "inactive"}

---

measured-on: Rap guanine nucleotide exchange factor 3 (Homo sapiens)
experiment-description: Confirmatory qHTS for antagonist of cAMP-regulated guanine nucleotide exchange factor 3 (EPAC1) (AID 1645880); further: nearly all actives have a fitted effect of over 55% in size
settings: EPAC1 Rap1B-BODIPY-GDP exchange, fluorescence; series mostly up to 115 µM
Results filed as inconclusive are left out. Activity calls are given as the source filed them. The call rests on the fitted dose curve; in most records, active means well fitted inhibition curve with a large enough effect; inconclusive means small, poorly fitted or top-dose-only effect; inactive means no such curve, though single readings can be large or run the other way.
Outcomes: active, inactive

{"compound": "CN1/C(=C\\C=C2/SC(=S)NC2=O)C(C)(C)c2ccccc21", "measured-on": "Rap guanine nucleotide exchange factor 3 (Homo sapiens)", "class-label": "inactive"}
{"compound": "Cc1ccc(C(CCN(Cc2ccccc2)C(=O)c2ccco2)c2ccco2)cc1 (stereo not drawn)", "measured-on": "Rap guanine nucleotide exchange factor 3 (Homo sapiens)", "class-label": "active"}
{"compound": "COc1ccc(C2NC(=O)N(C)C3=C2C(=O)N(c2cccc(Cl)c2)C3)cc1 (stereo not drawn)", "measured-on": "Rap guanine nucleotide exchange factor 3 (Homo sapiens)", "class-label": "inactive"}

---

measured-on: N-terminal Xaa-Pro-Lys N-methyltransferase 1 (Homo sapiens) (UniProt Q9BV86)
Sequence (Q9BV86 whole entry, looked up): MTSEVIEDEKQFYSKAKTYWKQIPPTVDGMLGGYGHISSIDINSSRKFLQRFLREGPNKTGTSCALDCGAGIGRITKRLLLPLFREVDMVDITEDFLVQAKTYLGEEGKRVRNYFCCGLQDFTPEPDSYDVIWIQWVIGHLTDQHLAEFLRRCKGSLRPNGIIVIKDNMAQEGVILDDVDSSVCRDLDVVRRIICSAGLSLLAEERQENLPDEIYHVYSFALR
experiment-description: Confirmatory qHTS for Inhibitors of N-terminal methyltransferase 1 (NTMT1): MTaseGlo Assay (AID 1645874); further: potency means the concentration at half of the fitted maximal effect; nearly all actives have a fitted effect of over 65% in size
settings: NTMT1 enzyme, MTase-Glo SAH luminescence; series mostly up to 100 µM
Records with an inconclusive call do not appear. The source made the active and inactive calls. The call rests on the fitted dose curve; in most records, active means well fitted inhibition curve with a large enough effect; inconclusive means small, poorly fitted or top-dose-only effect; inactive means no such curve, though single readings can be large or run the other way.

{"smiles-representation": "COc1ccc(C(=O)Nc2noc3ccccc23)cc1", "Potency": "39.8 µM (active)"}
{"smiles-representation": "O=C(Nc1noc2ccccc12)c1ccc(F)cc1", "Potency": "39.8 µM (active)"}
{"smiles-representation": "COc1c/c(=C2\\C=c3ccccc3=N2)[nH]/c1=C/c1[nH]c(C)cc1C", "Potency": "35 µM (active)"}
{"smiles-representation": "COc1cc2nc(N3CCOCC3)nc(NC(C)C)c2cc1OC", "Potency": "34.5 µM (active)"}

---

measured-on: Cytochrome P450 2D6 (Homo sapiens) (UniProt P10635)
Sequence (P10635 whole entry, looked up): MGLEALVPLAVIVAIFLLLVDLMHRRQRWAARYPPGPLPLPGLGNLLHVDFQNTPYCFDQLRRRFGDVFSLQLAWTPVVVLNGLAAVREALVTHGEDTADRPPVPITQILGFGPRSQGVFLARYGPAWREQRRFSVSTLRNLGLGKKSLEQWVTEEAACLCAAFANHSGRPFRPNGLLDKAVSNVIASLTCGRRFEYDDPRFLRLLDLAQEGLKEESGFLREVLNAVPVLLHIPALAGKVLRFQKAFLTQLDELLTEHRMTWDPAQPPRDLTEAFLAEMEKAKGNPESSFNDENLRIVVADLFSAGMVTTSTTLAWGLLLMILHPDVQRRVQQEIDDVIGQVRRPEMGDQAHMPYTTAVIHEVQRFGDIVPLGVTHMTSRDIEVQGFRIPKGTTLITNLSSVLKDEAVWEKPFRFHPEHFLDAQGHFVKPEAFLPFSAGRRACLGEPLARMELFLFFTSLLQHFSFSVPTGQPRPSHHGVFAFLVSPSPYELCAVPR
experiment-description: Cytochrome P450 family 2 subfamily D member 6 (CYP2D6) small molecule antagonists: luciferase biochemical (cell-free) qHTS assay (AID 1645840); further: nearly all actives have a fitted effect of over 55% in size
settings: P450-Glo CYP2D6 enzyme, luciferin luminescence, 1 h; series mostly up to 57.4 µM
Inconclusive results are not listed. The source made the active and inactive calls. Calls follow the shape of the dose curve; as a rule, active = well fitted inhibition curve with a large enough effect in the repeat runs; inconclusive = weak or mixed curves; inactive = flat fitted curve, though single readings scatter.
Outcome codes: active, inactive

{"molecule": "Cc1ccc2nc(-c3ccccn3)c(Nc3ccccc3C)n2c1", "class-label": "active"}
{"molecule": "Cc1ccc(CNC(=O)C2CCN(S(=O)(=O)c3c(C)noc3/C=C/c3ccccc3F)CC2)o1", "class-label": "inactive"}
{"molecule": "O=C(CSc1nc(-c2ccc(F)cc2)nc2c1Cc1ccccc1O2)Nc1cccc(C(=O)O)c1", "class-label": "inactive"}
{"molecule": "CC(O)CNC(=O)C(=O)Nc1c2c(nn1-c1ccc(Cl)cc1)CSC2 (stereo unspecified)", "class-label": "inactive"}
{"molecule": "COc1cc(C(c2c(C)[nH][nH]c2=O)c2c(C)[nH][nH]c2=O)ccc1OC(=O)c1ccccc1OC", "class-label": "inactive"}
{"molecule": "CCOC(=O)c1cnc2ccc(OC)cc2c1NCCc1ccc(OC)c(OC)c1", "class-label": "active"}
{"molecule": "Cc1cccc(NC(c2ccccc2C)c2ccc3ccc(C)nc3c2O)n1 (stereo unspecified)", "class-label": "inactive"}
{"molecule": "Cc1ccc(-n2ncc3c(NCCCn4ccnc4)ncnc32)cc1Cl", "class-label": "active"}
{"molecule": "Oc1cccc(C(Nc2ccccn2)c2ccc3cccnc3c2O)c1Cl (stereo unspecified)", "class-label": "active"}
{"molecule": "COc1ccc(-n2nc3c(N4CCCC(C(=O)NCc5ccc(C)cc5)C4)nnc(C)c3c2C)cc1 (stereo unspecified)", "class-label": "active"}
{"molecule": "Cc1ccc(C2=Nc3ccccc3N(CC(=O)Nc3ccccc3F)C(=O)C2)cc1C", "class-label": "active"}
{"molecule": "Cc1ccc2nc3c(cc(C#N)c(=O)n3-c3nnc(SCc4ccccc4)s3)c(=O)n2c1", "class-label": "inactive"}
{"molecule": "Cc1ccc(Cn2c(SCC(=O)NCc3ccccc3)nc3ccsc3c2=O)cc1", "class-label": "active"}
{"molecule": "Cc1cccc(NC(=O)CSc2nc3ccccc3c3nc(CCn4cncc4C)nn23)c1", "class-label": "active"}
{"molecule": "Cc1cc(-c2nc(CN3CCC(C(=O)NCCCN4C[C@H](C)C[C@H](C)C4)CC3)co2)ccc1F", "class-label": "active"}
{"molecule": "NC(=O)C(c1ccccc1)(c1ccccc1)[C@H]1CCN(CCc2ccc3c(c2)CCO3)C1", "class-label": "active"}
